target: KRAS G13D (Homo sapiens, UniProt P01116+P62937, G13D); assay: Disruption of BRAF RBD interaction with Ras (FRET / MOA assay, with Cyclophilin A); assay type: biochemical; settings: KRAS G13D; read-out: KRAS G13D FRET data IC50
Sequence (P01116 1-169 isoform P01116-2 G13D limits assumed): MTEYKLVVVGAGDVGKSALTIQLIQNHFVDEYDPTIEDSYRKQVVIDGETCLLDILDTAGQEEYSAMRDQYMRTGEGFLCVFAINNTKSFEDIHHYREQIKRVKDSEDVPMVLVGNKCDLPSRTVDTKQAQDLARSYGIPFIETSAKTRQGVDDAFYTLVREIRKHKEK
Sequence (P62937 whole entry): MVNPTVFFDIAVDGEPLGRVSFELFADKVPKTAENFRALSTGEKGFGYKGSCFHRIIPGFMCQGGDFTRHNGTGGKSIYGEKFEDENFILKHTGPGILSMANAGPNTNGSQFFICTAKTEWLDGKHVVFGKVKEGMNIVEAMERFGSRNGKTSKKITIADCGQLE
Item-by-item account of IC50
readout: IC50

>>> recorded_result("CCn1c(-c2cccnc2[C@H](C)OC)c2c3cc(ccc31)-c1csc(n1)C[C@H](NC(=O)[C@H](C1CCCC1)N(C)C(=O)N1CCN(C)CC1)C(=O)N1CCC[C@H](N1)C(=O)OCC(C)(C)C2")
"100 to 1000 nM"
>>> recorded_result("CCn1c(-c2cccnc2[C@H](C)OC)c2c3cc(ccc31)-c1csc(n1)C[C@H](NC(=O)[C@H](C(C)C)N(C)C(=O)N1C3CC1CS(=O)(=O)C3)C(=O)N1CCC[C@H](N1)C(=O)OCC(C)(C)C2")
"1000 to 10000 nM"
>>> recorded_result("CCN(C(=O)N(C)[C@H](C(=O)N[C@H]1Cc2nc(cs2)-c2ccc3c(c2)c(c(-c2cccnc2[C@H](C)OC)n3CC)CC(C)(C)COC(=O)[C@@H]2CCCN(N2)C1=O)C(C)C)C(C)C")
"100 to 1000 nM"
>>> recorded_result("CCn1c(-c2cccnc2[C@H](C)OC)c2c3cc(ccc31)-c1csc(n1)C[C@H](NC(=O)[C@H](C(C)C)N(C)C(=O)N1C[C@H](N)[C@@H](F)C1)C(=O)N1CCC[C@H](N1)C(=O)OCC(C)(C)C2 (atropisomer, axis not shown)")
"100 to 1000 nM"
>>> recorded_result("CCn1c(-c2cccnc2[C@H](C)OC)c2c3cc(ccc31)-c1csc(n1)C[C@H](NC(=O)[C@H](C(C)C)N(C)C(=O)N1C[C@@H]3CN(C)CC[C@@H]31)C(=O)N1CCC[C@H](N1)C(=O)OCC(C)(C)C2")
"1000 to 10000 nM"
